Cited source: ChEMBL document CHEMBL1201862

System: M14
Protocol notes: NCI tumour cell line growth inhibition, 48 h
The source made the active and inactive calls. Cut-off read from the data, not from the text of the source: active = GI50 up to about 1.1 µM and inactive = higher.
Choose the fitting class; nothing outside active, inactive is accepted.

Please review the entries below; each comes with its answer.
| Compound | Study system | Cat |
| --- | --- | --- |
| Cc1nc(C)c(C(=O)NNC(=O)C[N+](C)(C)C)cc1C(=O)NNC(=O)C[N+](C)(C)C | M14 | inactive |
| COc1ccc(O)c(/C=N/NC(=S)N2CCCCC2)c1 | M14 | active |
| CN(C)CCn1c(=O)c2ccc(NCCCN(C)CCCNc3ccc4c(=O)n(CCN(C)C)c(=O)n5c6ccccc6c(=O)c3c45)c3c(=O)c4ccccc4n(c1=O)c23 | M14 | active |
| COc1c(C)cc2c(c1O)C1C3[C@H]4SC[C@@]5(NCCC6=C5NC5C=CC=CC65)C(=O)OCC(c5c6c(c(C)c(OC(C)=O)c54)OCO6)N3[C@@H](O)C(C2)N1C (some centres undefined) | M14 | active |
| Cc1cc(C)c(C(=O)c2nnc3ccccc3c2N)c(C)c1 | M14 | inactive |
| Cc1nc2ccc(S(=O)(=O)NS(=O)(=O)c3ccc(-c4ccccc4)cc3)cc2c(=O)n1NS(=O)(=O)c1ccc(-c2ccccc2)cc1 | M14 | inactive |
| CC1CC(NN)=Nc2ccccc2N1 (centres undefined) | M14 | inactive |
| CC12NC(=C(C#N)C#N)C(C#N)=C3NC(N)=C(C#N)C(=C31)Oc1ccccc12 (centres undefined) | M14 | inactive |

Below: the item to evaluate.
Task: Would you mind telling me which call this test gave O=C(O/N=C1/CCCC/C1=C\c1ccccc1)c1ccc(Cl)cc1 ?
Result: inactive
